# Lookup of reported IC50 keyed by entry
Biological target: Mcl-1/Bim interaction, recombinant human Mcl-1 (171-327) (Homo sapiens, UniProt Q07820)
Construct: made in house
Sequence (Q07820 171-327): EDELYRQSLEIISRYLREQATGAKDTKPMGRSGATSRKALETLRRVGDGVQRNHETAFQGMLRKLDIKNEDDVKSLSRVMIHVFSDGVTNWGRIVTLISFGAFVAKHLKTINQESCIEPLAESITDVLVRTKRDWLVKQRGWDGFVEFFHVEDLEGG
Experiment: Cell free Mcl-1: Bim Affinity Assay (Mcl-1 HTRF)
Assay type: binding
Details: cell free Mcl-1:Bim TR-FRET, recombinant human Mcl-1 (171-327)
Protocol: Cell free Mcl-1: Bim Affinity Assay (Mcl-1 HTRF) The inhibition of the Mcl-1/Bim interaction was measured using a time-resolved fluorescence resonance energy transfer (TR-FRET) assay. […] A biotinylated peptide derived from human Bim (residues 51-76) was purchased from CPC Scientific (San Jose, CA). […] The reaction plates were further incubated overnight and then were read on an Envision® multimode reader (PerkinElmer). […]
The reply should consist of the numeric value with the unit placed after it.

1. O=C1NS(=O)(=O)CCOC/C=C/C2CCC2CN2C[C@@]3(CCCc4cc(Cl)ccc43)COc3ccc1cc32 (stereo in doubt); 10.5 nM
2. O=C1NS(=O)(=O)CCCCCC(=O)[C@@H]2CC[C@H]2CN2C[C@@]3(CCCc4cc(Cl)ccc43)COc3ccc1cc32; 8.26 nM
3. CO[C@H]1/C=C/[C@H](O)[C@@H]2CC[C@H]2CN2C[C@@]3(CCCc4cc(Cl)ccc43)COc3ccc(cc32)C(=O)NS(=O)(=O)[C@H](C)C1 (single isomer, unassigned); 1.05 nM

Task: Would you mind telling me what IC50 value was observed for COC[C@@H](O)C[C@@H]1[C@@H](C)C/C=C/[C@H](O)[C@@H]2CC[C@H]2CN2C[C@@]3(CCCc4cc(Cl)ccc43)COc3ccc(cc32)C(=O)NS1(=O)=O (single isomer, unassigned) [Example 673] ?
Result: 0.183 nM

Task: Okay, and COC[C@@H]1C[C@@H](C)/C=C/[C@H](OC)[C@@H]2CC[C@H]2CN2C[C@@]3(CCCc4cc(Cl)ccc43)COc3ccc(cc32)C(=O)NS1(=O)=O (single isomer, unassigned) ?
Result: 0.369 nM

* * *

Target: Mcl-1/Bim interaction, recombinant human Mcl-1 (171-327) (Homo sapiens)
Construct: made in house
Test: Cell free Mcl-1: Bim Affinity Assay (Mcl-1 HTRF)
Format: binding
Conditions: TR-FRET, 0.1 nM Mcl-1 (171-327), 0.05 nM biotin-Bim (51-76)
measured_property: pIC50
Quick note: pIC50 means taking -log10 of the concentration in moles per liter.

Take a look at these entries with their results.
1. Cn1cnc(CO[C@H]2/C=C/C[C@@H]3CCC[C@H]3S(=O)(=O)NC(=O)c3ccc4c(c3)N(C[C@@H]3CC[C@H]32)C[C@@]2(CCCc3cc(Cl)ccc32)CO4)n1 (single isomer, unassigned); 9.36
2. O=C1NS(=O)(=O)CCCC[C@@H](O)[C@@H]2CC[C@H]2CN2C[C@@]3(CCCc4cc(Cl)ccc43)COc3ccc1cc32; 8.04
3. CC[C@@H]1C[C@H](C)/C=C/[C@H](OCCN2CCOCC2)[C@@H]2CC[C@H]2CN2C[C@@]3(CCCc4cc(Cl)ccc43)COc3ccc(cc32)C(=O)NS1(=O)=O (single isomer, unassigned); 9.02
4. COC[C@H]1[C@@H](C)C/C=C/[C@H](OC)[C@@H]2CC[C@H]2CN2C[C@@]3(CCCc4cc(Cl)ccc43)COc3ccc(cc32)C(=O)NS1(=O)=O (single isomer, unassigned); 8.75

Moving on to the next compound.
Task: Would you mind telling me what pIC50 value was observed for `CCN1CC/C=C/[C@H](OCC(=O)N2CCCC2)[C@@H]2CC[C@H]2CN2C[C@@]3(CCCc4cc(Cl)ccc43)COc3ccc(cc32)C(=O)NS1(=O)=O` ?
Result: 9.18
